Each recorded value in this set is attributed to patent US20080194574A1.

# Assay target: CDK9 (Homo sapiens)
# Sequence (P50750 whole entry, species assumed): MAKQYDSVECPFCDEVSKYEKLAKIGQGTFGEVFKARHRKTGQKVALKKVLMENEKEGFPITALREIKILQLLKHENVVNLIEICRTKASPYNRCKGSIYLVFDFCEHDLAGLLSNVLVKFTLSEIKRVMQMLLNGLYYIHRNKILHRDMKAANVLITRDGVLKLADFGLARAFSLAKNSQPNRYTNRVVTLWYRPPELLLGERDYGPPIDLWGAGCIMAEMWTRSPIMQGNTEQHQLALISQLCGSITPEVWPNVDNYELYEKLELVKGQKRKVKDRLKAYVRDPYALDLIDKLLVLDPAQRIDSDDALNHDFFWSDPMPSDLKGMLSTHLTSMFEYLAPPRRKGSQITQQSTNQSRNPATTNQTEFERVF
# Sequence (O60563 whole entry partner, species assumed): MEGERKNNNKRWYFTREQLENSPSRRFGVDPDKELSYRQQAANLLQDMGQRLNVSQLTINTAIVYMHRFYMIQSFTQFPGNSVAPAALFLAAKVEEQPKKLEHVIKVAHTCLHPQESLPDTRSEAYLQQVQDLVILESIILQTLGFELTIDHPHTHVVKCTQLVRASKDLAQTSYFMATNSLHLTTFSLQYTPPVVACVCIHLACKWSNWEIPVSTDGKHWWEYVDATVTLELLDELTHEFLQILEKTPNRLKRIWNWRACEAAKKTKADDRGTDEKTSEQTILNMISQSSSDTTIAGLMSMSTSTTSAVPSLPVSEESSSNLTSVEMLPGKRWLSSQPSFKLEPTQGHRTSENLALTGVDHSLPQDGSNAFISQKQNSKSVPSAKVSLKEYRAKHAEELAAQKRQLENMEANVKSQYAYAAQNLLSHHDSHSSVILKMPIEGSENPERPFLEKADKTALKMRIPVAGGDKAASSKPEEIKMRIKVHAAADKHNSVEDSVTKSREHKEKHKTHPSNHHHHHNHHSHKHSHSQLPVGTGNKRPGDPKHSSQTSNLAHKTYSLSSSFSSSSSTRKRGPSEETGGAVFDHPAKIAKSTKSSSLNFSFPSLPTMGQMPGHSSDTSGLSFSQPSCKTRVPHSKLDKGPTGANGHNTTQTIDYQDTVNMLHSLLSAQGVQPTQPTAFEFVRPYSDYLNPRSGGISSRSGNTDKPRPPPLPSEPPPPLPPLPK
# Procedure details: General kinase assay protocol (33P-ATP, MBP substrate, filter plate): CDK9
# Format: biochemical
# Condition description: inhibition at concentration 10 μM; read-out: Inhibitory effect on Target CDK9
# Excerpt: General Assay Protocol for all Kinases (For UL97 a special UL97 kinase assay was used as described below.) Final Assay Concentrations: […]
Form field: inhibition at 10 µM (one value per entry).
Measurement kind: inhibition at 10 µM

{"Compound": "CC(=O)Nc1cccc(-c2cncc(Nc3ccc4c(c3)OC(F)(F)C(F)(F)O4)n2)c1 [compound 403]", "Value measured": "> 50%"}
{"Compound": "Oc1ccc(-c2cncc(Nc3ccc(F)c(Cl)c3)n2)cc1 [Comp. 11]", "Value measured": "> 75%"}
{"Compound": "CN(C)CCNC(=O)c1cccc(-c2cncc(Nc3ccc(Cl)cc3)n2)c1 [Comp. 381]", "Value measured": "> 50%"}
{"Compound": "CC(=O)Nc1ccc(-c2cncc(Nc3ccc(Cl)cc3)n2)cc1 [compound 397]", "Value measured": "> 50%"}
